# Tested on: Leukemia L-1210
# assay: Effect on the life span of mice implanted with leukemic cells of L-1210 (Method B)
# Format: in vivo, mice (male BDF1)
# conditions-used: Mus musculus, L1210, ip, 1440 h; 50 mg/kg/day i.p., once a day for 5 days; read-out: 60-day survivors (mice survived for 60 days/mice used) (converted)
# reported responders at 50 mg/kg; entries follow
measure-name: responders at 50 mg/kg

compound | measure-name | recorded-measurement
COCCN(C(=O)N(CCCl)N=O)C1O[C@H](CO)[C@@H](O)[C@H]1O (some centres unmarked) [Compound 9] | responders at 50 mg/kg | 100%
COCCCN(C(=O)N(CCCl)N=O)C1OC[C@H](O)[C@H](O)[C@H]1O (some centres unmarked) [Compound 4] | responders at 50 mg/kg | 100%
COCCN(C(=O)N(CCCl)N=O)C1OC[C@H](O)[C@H](O)[C@H]1O (some centres unmarked) [Compound 3] | responders at 50 mg/kg | 83.3%
COCC(C)N(C(=O)N(CCCl)N=O)C1O[C@H](CO)[C@@H](O[C@H]2O[C@H](CO)[C@@H](O)[C@H](O)[C@H]2O)[C@H](O)[C@H]1O (some centres unmarked) [Compound 2] | responders at 50 mg/kg | 100%
COCCCN(C(=O)N(CCCl)N=O)C1OC[C@@H](O)[C@@H](O)[C@@H]1O (some centres unmarked) [Compound 7] | responders at 50 mg/kg | 100%
COCCCN(C(=O)N(CCCl)N=O)C1O[C@H](CO)[C@@H](O)[C@H](O)[C@H]1O (some centres unmarked) [Compound 12] | responders at 50 mg/kg | 100%
COCC(C)N(C(=O)N(CCCl)N=O)C1O[C@H](CO)[C@H](O)[C@H](O)[C@H]1O (some centres unmarked) [Compound 8] | responders at 50 mg/kg | 100%
COC(C)CN(C(=O)N(CCCl)N=O)C1OC[C@H](O)[C@H](O)[C@H]1O (some centres unmarked) [Compound 5] | responders at 50 mg/kg | 75%
